The entries below come with measured IC50 values attached.
- Test system: human neuroblastoma cell line SH-SY-5Y
- ASSAY_REMARKS: Cytotoxicity assay in human neuroblastoma cell line SH-SY-5Y
- Type: cell-based
Lab note: write values as number then unit, every time.

Task item: Fill blank: measured IC50 of the compound C[C@@H](NCc1ccc(OCc2ccccc2F)c(Cc2ccccc2F)c1)C(N)=O (racemic) is ____.
Reply: 14.3 µM

Now take the following compound into account.
Task item: Fill blank: measured IC50 of the compound C[C@@H](NCc1ccc(OCc2cccc(F)c2)c(Cc2cccc(F)c2)c1)C(N)=O (racemic) is ____.
Reply: 11.8 µM

---

- ASSAYED_TARGET: recombinant HERG channel (Homo sapiens, UniProt Q12809)
- Sequence (Q12809 whole entry): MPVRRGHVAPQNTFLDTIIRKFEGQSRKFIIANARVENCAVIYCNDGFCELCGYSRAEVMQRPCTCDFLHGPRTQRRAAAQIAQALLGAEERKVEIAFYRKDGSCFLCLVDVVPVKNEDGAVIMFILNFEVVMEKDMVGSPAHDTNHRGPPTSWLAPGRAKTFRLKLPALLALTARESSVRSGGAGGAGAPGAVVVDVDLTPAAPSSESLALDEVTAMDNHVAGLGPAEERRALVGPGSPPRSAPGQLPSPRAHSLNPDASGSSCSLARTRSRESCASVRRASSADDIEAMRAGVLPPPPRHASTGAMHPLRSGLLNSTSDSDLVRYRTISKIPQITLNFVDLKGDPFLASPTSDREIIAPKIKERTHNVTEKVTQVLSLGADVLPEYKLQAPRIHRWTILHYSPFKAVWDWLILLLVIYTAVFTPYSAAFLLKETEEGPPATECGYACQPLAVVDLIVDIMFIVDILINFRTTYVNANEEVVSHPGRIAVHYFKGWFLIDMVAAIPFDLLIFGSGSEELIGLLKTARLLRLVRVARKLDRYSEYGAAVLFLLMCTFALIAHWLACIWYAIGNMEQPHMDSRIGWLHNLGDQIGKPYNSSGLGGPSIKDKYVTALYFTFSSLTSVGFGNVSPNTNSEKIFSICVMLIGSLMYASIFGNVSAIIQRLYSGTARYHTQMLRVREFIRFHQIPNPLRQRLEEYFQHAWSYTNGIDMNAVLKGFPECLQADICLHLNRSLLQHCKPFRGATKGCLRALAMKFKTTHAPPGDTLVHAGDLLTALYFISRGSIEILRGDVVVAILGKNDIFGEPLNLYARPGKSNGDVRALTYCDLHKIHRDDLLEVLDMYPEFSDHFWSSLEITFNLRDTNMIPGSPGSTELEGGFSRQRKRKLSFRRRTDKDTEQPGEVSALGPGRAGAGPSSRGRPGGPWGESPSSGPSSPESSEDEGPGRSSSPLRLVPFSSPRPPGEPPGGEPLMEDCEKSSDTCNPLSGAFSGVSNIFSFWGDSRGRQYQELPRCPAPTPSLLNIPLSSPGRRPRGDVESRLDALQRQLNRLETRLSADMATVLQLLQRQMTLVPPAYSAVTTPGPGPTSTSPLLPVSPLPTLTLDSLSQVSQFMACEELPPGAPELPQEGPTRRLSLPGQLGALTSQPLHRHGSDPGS
- ASSAY_REMARKS: HERG current in transfected CHO cell lines
VALUE_KIND: IC50

Task item: Fill blank: measured IC50 of the compound C[C@@H](NCc1ccc(OCc2cccc(F)c2)c(Cc2cccc(F)c2)c1)C(N)=O [Impurity (II′c), methanesulfonate] is ____.
Reply: < 1 µM

Now take the following compound into account.
Task item: Fill blank: measured IC50 of the compound C[C@@H](NCc1ccc(OCc2ccccc2F)c(Cc2ccccc2F)c1)C(N)=O [Impurity (II′d), methanesulfonate] is ____.
Reply: < 1 µM

---

- ASSAYED_TARGET: CYP2C19 (Homo sapiens, UniProt P33261)
- Construct: purchased Gentest
- Sequence (P33261 whole entry): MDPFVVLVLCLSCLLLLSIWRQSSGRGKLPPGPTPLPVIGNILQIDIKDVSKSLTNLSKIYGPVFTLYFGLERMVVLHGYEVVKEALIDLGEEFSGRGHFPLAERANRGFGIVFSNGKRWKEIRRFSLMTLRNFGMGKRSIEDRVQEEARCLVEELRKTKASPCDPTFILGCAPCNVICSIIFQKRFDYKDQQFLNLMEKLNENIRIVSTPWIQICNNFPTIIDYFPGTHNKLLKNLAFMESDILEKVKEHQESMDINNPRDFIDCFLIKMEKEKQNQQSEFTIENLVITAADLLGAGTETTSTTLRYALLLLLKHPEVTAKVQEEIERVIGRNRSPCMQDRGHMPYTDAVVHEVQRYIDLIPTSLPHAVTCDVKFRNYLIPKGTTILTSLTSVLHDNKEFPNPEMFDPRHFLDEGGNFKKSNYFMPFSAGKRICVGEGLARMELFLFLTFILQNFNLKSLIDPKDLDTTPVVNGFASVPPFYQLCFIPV
- ASSAY_REMARKS: Cytochrome P450 assay (Gentest Kit), CYP2C19
- Type: in vitro ADME
VALUE_KIND: pIC50
Lab note: report pIC50 as minus log10 of the concentration in molar units, number only.

Task item: Fill blank: measured pIC50 of the compound C[C@@H](NCc1ccc(OCc2ccccc2F)c(Cc2ccccc2F)c1)C(N)=O (racemic) is ____.
Reply: 7.52

Next:
Task item: Fill blank: measured pIC50 of the compound C[C@@H](NCc1ccc(OCc2cccc(F)c2)c(Cc2cccc(F)c2)c1)C(N)=O (racemic) is ____.
Reply: 6.77

---

The entries below come with measured IC50 values attached.
- ASSAYED_TARGET: CYP2D6 (Homo sapiens)
- Construct: purchased Gentest
- Sequence (P10635 whole entry): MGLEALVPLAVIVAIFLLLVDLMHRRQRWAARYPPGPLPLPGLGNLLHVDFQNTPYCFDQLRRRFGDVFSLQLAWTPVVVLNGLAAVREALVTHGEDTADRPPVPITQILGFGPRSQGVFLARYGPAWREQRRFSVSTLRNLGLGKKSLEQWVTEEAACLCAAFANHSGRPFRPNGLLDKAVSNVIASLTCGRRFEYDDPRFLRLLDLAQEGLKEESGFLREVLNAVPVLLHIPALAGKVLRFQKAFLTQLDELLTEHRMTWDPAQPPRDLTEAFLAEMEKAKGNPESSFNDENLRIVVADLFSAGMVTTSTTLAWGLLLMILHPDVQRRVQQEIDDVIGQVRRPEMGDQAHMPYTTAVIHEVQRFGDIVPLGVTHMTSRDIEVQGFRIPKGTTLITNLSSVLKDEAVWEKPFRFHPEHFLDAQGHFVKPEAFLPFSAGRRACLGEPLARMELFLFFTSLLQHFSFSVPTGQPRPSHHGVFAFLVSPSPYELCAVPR
- ASSAY_REMARKS: Cytochrome P450 assay (Gentest Kit), CYP2D6
- Type: in vitro ADME
- EXPERIMENTAL_PARAMETERS: human recombinant isoenzyme, fluorescent substrate; read-out: CYP2D6 IC50
Use nM as the unit, but write only the number.

Task item: Fill blank: measured IC50 of the molecule C[C@@H](NCc1ccc(OCc2ccccc2F)c(Cc2ccccc2F)c1)C(N)=O [Impurity (II′d), methanesulfonate] is ____.
Reply: 620

Task item: Fill blank: measured IC50 of the molecule C[C@@H](NCc1ccc(OCc2cccc(F)c2)c(Cc2cccc(F)c2)c1)C(N)=O [Impurity (II′c), methanesulfonate] is ____.
Reply: 150

---

- ASSAYED_TARGET: CYP1A2 (Homo sapiens)
- Construct: purchased Gentest
- ASSAY_REMARKS: in vitro
- Type: in vitro ADME
The entries below come with measured pIC50 values attached.
Lab note: report pIC50 as minus log10 of the concentration in molar units, number only.

Task item: Fill blank: measured pIC50 of the molecule C[C@@H](NCc1ccc(OCc2cccc(F)c2)c(Cc2cccc(F)c2)c1)C(N)=O (racemic) is ____.
Reply: 4.55

Now take the following molecule into account.
Task item: Fill blank: measured pIC50 of the molecule C[C@@H](NCc1ccc(OCc2ccccc2F)c(Cc2ccccc2F)c1)C(N)=O (racemic) is ____.
Reply: 4.40

---

- ASSAYED_TARGET: CYP1A2 (Homo sapiens, UniProt P05177)
- Construct: purchased Gentest
- Sequence (P05177 1-516): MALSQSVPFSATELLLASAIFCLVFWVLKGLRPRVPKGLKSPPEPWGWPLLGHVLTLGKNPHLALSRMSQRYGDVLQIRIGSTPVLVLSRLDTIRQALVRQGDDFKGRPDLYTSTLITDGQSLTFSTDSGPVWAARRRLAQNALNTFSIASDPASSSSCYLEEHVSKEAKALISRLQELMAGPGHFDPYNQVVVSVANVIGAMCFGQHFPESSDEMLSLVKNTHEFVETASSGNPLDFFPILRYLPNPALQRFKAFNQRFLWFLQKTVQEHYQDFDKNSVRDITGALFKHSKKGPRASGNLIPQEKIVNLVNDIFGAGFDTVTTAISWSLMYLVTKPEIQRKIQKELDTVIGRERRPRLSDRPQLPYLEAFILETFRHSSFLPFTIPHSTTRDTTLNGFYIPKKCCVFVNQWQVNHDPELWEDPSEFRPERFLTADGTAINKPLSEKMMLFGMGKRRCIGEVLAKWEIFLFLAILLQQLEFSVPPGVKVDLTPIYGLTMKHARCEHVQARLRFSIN
- ASSAY_REMARKS: in vitro
- Assay type: in vitro ADME
- EXPERIMENTAL_PARAMETERS: human recombinant isoenzyme, substrate 3-cyano-7-ethoxycoumarin; read-out: CYP1A2 IC50
VALUE_KIND: pIC50
Lab note: report pIC50 as minus log10 of the concentration in molar units, number only.

Task item: Fill blank: measured pIC50 of the molecule C[C@@H](NCc1ccc(OCc2cccc(F)c2)c(Cc2cccc(F)c2)c1)C(N)=O [Impurity (II′c), methanesulfonate] is ____.
Reply: 4.53

---

The entries below come with measured IC50 at 24 h values attached.
- ASSAY_REMARKS: Cytotoxicity assay in human neuroblastoma cell line SH-SY-5Y
- Assay type: cell-based
- EXPERIMENTAL_PARAMETERS: human, SH-SY-5Y neuroblastoma cells; SH-SY-5Y, 24 hours incubation, Alamar Blue; concentration inducing 50% of mortality
Use µM as the unit, but write only the number.

Task item: Fill blank: measured IC50 at 24 h of the molecule C[C@@H](NCc1ccc(OCc2cccc(F)c2)c(Cc2cccc(F)c2)c1)C(N)=O [Impurity (II′c), methanesulfonate] is ____.
Reply: 8.81

Next:
Task item: Fill blank: measured IC50 at 24 h of the molecule C[C@@H](NCc1ccc(OCc2ccccc2F)c(Cc2ccccc2F)c1)C(N)=O [Impurity (II′d), methanesulfonate] is ____.
Reply: 11.5

---

The entries below come with measured pIC50 values attached.
- ASSAYED_TARGET: CYP2C9 (Homo sapiens, UniProt P11712)
- Construct: purchased Gentest
- Sequence (P11712 whole entry): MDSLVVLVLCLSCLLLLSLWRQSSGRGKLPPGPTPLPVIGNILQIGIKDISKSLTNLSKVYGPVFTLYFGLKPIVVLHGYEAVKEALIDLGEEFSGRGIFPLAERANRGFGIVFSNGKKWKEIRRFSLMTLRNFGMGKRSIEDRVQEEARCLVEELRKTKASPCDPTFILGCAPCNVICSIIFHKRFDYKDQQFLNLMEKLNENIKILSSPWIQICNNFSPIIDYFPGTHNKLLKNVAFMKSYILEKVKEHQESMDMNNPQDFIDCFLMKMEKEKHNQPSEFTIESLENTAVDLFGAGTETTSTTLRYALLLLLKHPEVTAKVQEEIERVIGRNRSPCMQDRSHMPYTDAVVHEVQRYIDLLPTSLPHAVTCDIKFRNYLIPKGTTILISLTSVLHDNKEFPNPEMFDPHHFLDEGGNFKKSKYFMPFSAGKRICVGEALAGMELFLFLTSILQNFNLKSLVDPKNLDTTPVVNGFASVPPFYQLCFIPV
- ASSAY_REMARKS: Cytochrome P450 assay (Gentest Kit), CYP2C9
- Format: in vitro ADME
Lab note: report pIC50 as minus log10 of the concentration in molar units, number only.

Task item: Fill blank: measured pIC50 of the molecule C[C@@H](NCc1ccc(OCc2cccc(F)c2)c(Cc2cccc(F)c2)c1)C(N)=O (racemic) [Impurity (IIc, II′c)] is ____.
Reply: 5.25

Next:
Task item: Fill blank: measured pIC50 of the molecule C[C@@H](NCc1ccc(OCc2ccccc2F)c(Cc2ccccc2F)c1)C(N)=O (racemic) [Impurity (IId, II′d)] is ____.
Reply: 5.30

Origin of measurements: patent US8530701B2
